assay.setup: pH 6.8
Label scheme for aqueous solubility: lower than 40 µg/mL is f, 40 µg/mL and above is t.

Problem: Entry O=C(NCC1CC1)c1ccc(-n2ccnc2)nc1 : is its aqueous solubility no less than 40 µg/mL?
Solution: t

Problem: Hi, just wondering whether O=C(CCc1cccs1)Nc1ccc(N2CCOCC2)cn1 shows aqueous solubility of 40 µg/mL or higher.
Solution: f

###

Could you please report measured intrinsic clearance, rat liver microsomes for the items listed next?
One number for each entry, in mL/min/kg.

These recorded examples may help you get a feel for the data.
compound | result.number
O=C(NCC#CCN1CCc2ccccc2C1)NCc1ccc(F)cc1 | 545
O=C(Nc1ccc(S(=O)(=O)Nc2ccnn2-c2ccccc2)cc1)c1ccco1 | 102
CNC(=O)C1(Cc2ccc(-c3cccnc3)cc2)CCN(Cc2ccccc2Cl)C1 (configuration not stated) | 559

Give intrinsic clearance, rat liver microsomes for each listed item.
1. O=C(Nc1ccc(F)cc1F)N1CCn2c1nc1ccccc12
2. CCCn1ncc(CN2CCC(c3cc4cccnc4[nH]3)CC2)c1C

Solution:
[90.1, 201]
